Recorded values, source PubChem BioAssay (Tox21).

assay: A CellTox Green Cytotoxicity Assay to monitor cytotoxicity in HepG2 cells - 8 hour (AID 1224890); settings: CellTox Green fluorescence; series mostly up to 76.8 µM; also: nearly all actives have a fitted effect of over 45% in size
Results filed as inconclusive are left out. Calls of active or inactive are those of the source. Calls follow the shape of the dose curve; as a rule, active = well fitted activation curve with a large enough effect in the repeat runs; inconclusive = weak or mixed curves; inactive = flat fitted curve, though single readings scatter.
Your response should consist of one outcome taken from active, inactive

Worked cases, answers included:
CCc1ccc(C)nc1 | inactive
CCc1cccc(C)c1 | inactive
Clc1ccc(C(c2ccccc2Cl)C(Cl)Cl)cc1 (centres undefined) | inactive
CNC(=S)NN | inactive
CC(C)(C)c1n[nH]c(=O)n(N)c1=O | inactive
c1cc2c3c(c1)ccc1cccc(c13)C2 | inactive
CCCCCCCCCC(=O)N(C)C | inactive
C[C@]12CC[C@H]3C(=CCc4cc(O)ccc43)[C@@H]1CCC2=O | inactive
CC1(C)C(=O)N(CO)C(=O)N1CO | inactive
CCCCOc1ccc(C(=O)CCN2CCCCC2)cc1 | active

For COc1cccc(CCc2ccccc2OCC(CN(C)C)OC(=O)CCC(=O)O)c1 (centres undefined) , which call appears in the assay record?
inactive

For `Cc1cccc(C)n1` , which call appears in the assay record?
inactive

For `CCc1c(C(=O)O)c(=O)cnn1-c1ccc(Cl)cc1` , which call appears in the assay record?
inactive

---

assay: qHTS assay to identify small molecule antagonists of the estrogen related receptor (ERR) signaling pathway from Tox21 library - cell viability counter screen (AID 1224834); settings: ERR reporter cells viability, CellTiter-Fluor, 17.5 h; series mostly up to 92.4 µM; also: nearly all actives have a fitted effect of over 30% in size
Results filed as inconclusive are left out. Activity calls are given as the source filed them. Calls come from the whole dose curve; as a rule, active = well fitted cell-killing curve with a large enough effect in the repeat runs; inconclusive = weak or mixed curves; inactive = flat fitted curve, though single readings scatter.
Your response should consist of one outcome taken from active, inactive

Worked cases, answers included:
C/C=C/CO | inactive
Cc1cc(Nc2ccc(O)cc2)ccc1N | active
c1cc2c3c(c1)ccc1cccc(c13)C2 | inactive
CCCCCCOc1cc(C)c(O)c(C)c1C | active
OCCCS | inactive
CC(=O)OC1CCCCC1 | inactive
Cc1cc2c(C(C)C)c(O)c(O)c(C=O)c2c(O)c1-c1c(C)cc2c(C(C)C)c(O)c(O)c(C=O)c2c1O | active
Clc1cccnc1 | inactive
CCCC(=O)OCC(COC(=O)CCC)OC(=O)CCC | inactive
COCC(=O)O[C@]1(CCN(C)CCCc2nc3ccccc3[nH]2)CCc2cc(F)ccc2[C@@H]1C(C)C | active

For `CCCCCCCC/C=C\CCCCCCCC(=O)NCc1ccc(O)c(OC)c1` , which call appears in the assay record?
inactive

For `S=P(N1CC1)(N1CC1)N1CC1` , which call appears in the assay record?
inactive

For CN1[C@@H]2CC[C@H]1CC(OC(=O)C(CO)c1ccccc1)C2 (stereo partly drawn) , which call appears in the assay record?
inactive

---

test: qHTS assay to identify small molecule antagonists of the estrogen related receptor signaling pathway with the pleiotropic PPARgamma coactivator (PGC) from Tox21 10K library - cell viability counter screen (AID 1224840); conditions: PGC/ERR reporter cells viability, CellTiter-Fluor, 17.5 h; series mostly up to 92.4 µM; also: nearly all actives have a fitted effect of over 40% in size
Inconclusive results are not listed. Active and inactive are the calls of the source. The call rests on the fitted dose curve; in most records, active means well fitted cell-killing curve with a large enough effect in the repeat runs (not every such curve was filed as active); inconclusive means weak or mixed curves, or effect the other way; inactive means no such curve, though single readings can be large or run the other way.
metric: outcome

CC(=O)O[C@@H]1C[C@@H]2CC[C@@]1(C)C2(C)C | inactive
COc1ccc(C#N)cc1 | inactive
CCOC(=O)CN | inactive
Cc1ccc(O)cn1 | inactive
CC1CCCNC1 (stereo not drawn) | inactive

Hi! Can you tell me outcome for each of these compounds?
1. Cc1cccc(C)c1NC(=O)CN1CCN(CCCC(c2ccc(F)cc2)c2ccc(F)cc2)CC1
2. COC(=O)CC(C)CCC=C(C)C (stereo not drawn)
3. C(=C/c1ccccc1)/c1ccccc1

inactive
inactive
inactive

---

assay: A CellTox Green Cytotoxicity Assay to monitor cytotoxicity in HepG2 cells - 24 hour (AID 1224878); conditions: CellTox Green fluorescence; series mostly up to 76.8 µM; also: nearly all actives have a fitted effect of over 45% in size
Results filed as inconclusive are left out. Calls of active or inactive are those of the source. Calls come from the whole dose curve; as a rule, active = well fitted activation curve with a large enough effect in the repeat runs; inconclusive = weak or mixed curves; inactive = flat fitted curve, though single readings scatter.
Your response should consist of one outcome taken from true (1) for active, false (0) for inactive

CCCCCCCCCCCCCc1ccccc1 | false (0)
O=C(O)Cc1ccc(OCCNC[C@H](O)c2ccccc2)cc1 | false (0)

For `C(=C/c1ccccc1)/c1ccccc1` , which call appears in the assay record?
false (0)

For C=CC(C)C#N (stereo unspecified) , which call appears in the assay record?
false (0)

For `CC1(C)C(=O)N(CO)C(=O)N1CO` , which call appears in the assay record?
false (0)

For `CCc1c(C(=O)O)c(=O)cnn1-c1ccc(Cl)cc1` , which call appears in the assay record?
false (0)

For `C=CC/C=C/C/C=C/C/C=C/C` , which call appears in the assay record?
false (0)

For `CC(C)(c1cc(Br)c(OCCO)c(Br)c1)c1cc(Br)c(OCCO)c(Br)c1` , which call appears in the assay record?
false (0)

For `CCN(CC)CCOC(=O)C1(C2CCCCC2)CCCCC1` , which call appears in the assay record?
true (1)

For `CCCCOc1ccc(C(=O)CCN2CCCCC2)cc1` , which call appears in the assay record?
true (1)

For `Cc1cc(=O)[nH]c(=O)[nH]1` , which call appears in the assay record?
false (0)

For `O=C1C=CC(=O)N1c1ccccc1` , which call appears in the assay record?
true (1)

For `C=C(C)CCCC` , which call appears in the assay record?
false (0)

For `NCCCC(O)(P(=O)(O)O)P(=O)(O)O` , which call appears in the assay record?
false (0)

For `CC(C)(C)c1cc(CCC(=O)NCCCCCCNC(=O)CCc2cc(C(C)(C)C)c(O)c(C(C)(C)C)c2)cc(C(C)(C)C)c1O` , which call appears in the assay record?
false (0)

For `CCCCCCCC(OC)OC` , which call appears in the assay record?
false (0)

For COC(=O)C1=C(C)NC(C)=C(C(=O)OCCCN2CCC(c3ccccc3)(c3ccccc3)CC2)C1c1cccc([N+](=O)[O-])c1 (stereo unspecified) , which call appears in the assay record?
false (0)

For `Nc1cc(Cl)c([N+](=O)[O-])cc1O` , which call appears in the assay record?
false (0)

For `CO[Si](CCCNCCNCCN)(OC)OC` , which call appears in the assay record?
false (0)

For `CNC(=S)NN` , which call appears in the assay record?
false (0)

For `O=C1OC(=O)c2ccc3c4c(ccc1c24)C(=O)OC3=O` , which call appears in the assay record?
false (0)

For `CC(C)N=C(N)/N=C(\N)Nc1ccc(Cl)cc1` , which call appears in the assay record?
true (1)

For CN(C)CCOC(c1ccccc1)c1ccccc1 (tested in a mixture with another compound) , which call appears in the assay record?
false (0)

For `CCCCCCCCCC(=O)N(C)C` , which call appears in the assay record?
false (0)

For `Brc1ccccn1` , which call appears in the assay record?
false (0)

For `CCCCCCCOC(=O)c1ccccc1C(=O)OCCCCCCC` , which call appears in the assay record?
false (0)

For O=C1NC2CCCCN2C12CCN(CCCN1c3ccccc3CCc3ccc(Cl)cc31)CC2 (stereo unspecified) , which call appears in the assay record?
true (1)

For `S=P(N1CC1)(N1CC1)N1CC1` , which call appears in the assay record?
false (0)

For `CCC1CCCCC1` , which call appears in the assay record?
false (0)

For C[n+]1c2cc(N)ccc2cc2ccc(N)cc21 (tested in a mixture with another compound) , which call appears in the assay record?
true (1)

---

experiment: qHTS RealTime-Glo MT Cell Viability Assay in HEK293 cells - 16 hour (AID 1224872); settings: RealTime-Glo luminescence; series mostly up to 76.8 µM; also: top concentration of the series differs between compounds; nearly all actives have a fitted effect of over 50% in size
Records with an inconclusive call do not appear. Activity calls are given as the source filed them. Calls come from the whole dose curve; as a rule, active = well fitted cell-killing curve with a large enough effect in the repeat runs; inconclusive = weak or mixed curves, or effect the other way; inactive = flat fitted curve, though single readings scatter.
Your response should consist of one outcome taken from T (active), F (inactive)

CC1=CCC(=O)O1 | F
OCCCS | F
CC(C)(C)C1=CC(=O)C=C(C(C)(C)C)C1=O | F
C/C=C/c1ccc(OC)c(OC)c1 | F

For CN1[C@@H]2CC[C@H]1CC(OC(=O)C(CO)c1ccccc1)C2 (some centres undefined) , which call appears in the assay record?
F

---

experiment: qHTS RealTime-Glo MT Cell Viability Assay in HepG2 cells - 16 hour (AID 1224885); settings: RealTime-Glo luminescence; series mostly up to 76.8 µM; also: nearly all actives have a fitted effect of over 50% in size; also: potency is read from the fitted curve at half-maximal effect
Results filed as inconclusive are left out. Activity calls are given as the source filed them. Calls follow the shape of the dose curve; as a rule, active = well fitted cell-killing curve with a large enough effect in the repeat runs; inconclusive = weak or mixed curves; inactive = flat fitted curve, though single readings scatter.
metric: Potency

Before answering, review these 8 worked examples.
O[C@@H](c1cc(C(F)(F)F)nc2c(C(F)(F)F)cccc12)[C@H]1CCCCN1 | 21.3 µM (active)
CC1=CP(=O)(c2ccccc2)CC1 (stereo unspecified) | inactive
NCCCC(O)(P(=O)(O)O)P(=O)(O)O | inactive
CC(C)=CC1CC(C)CCO1 (stereo unspecified) | inactive
CCO[Si](CCCSSSSCCC[Si](OCC)(OCC)OCC)(OCC)OCC | inactive
SCCCCCCCCS | inactive
CC(COC(=O)c1ccccc1)OC(=O)c1ccccc1 (stereo unspecified) | inactive
N#CSCSc1nc2ccccc2s1 | 43.6 µM (active)

Hi! Can you tell me Potency for each of these compounds?
1. Cn1cccc1
2. CC(=O)Oc1ccc(C2(c3ccc(OC(C)=O)cc3)Oc3ccccc3NC2=O)cc1
3. C=CC(=O)OCCN(CC)CC

["inactive", "inactive", "inactive"]
